Entries and their pKd
# Target entity: T1, PCPE-1 (Procollagen C-proteinase enhancer-1) glycoprotein, human (human, UniProt Q15113 26-449)
# T1 construct: mature; Secreted recombinant protein; also called purified human PCPE-1
# T1 sequence (looked up): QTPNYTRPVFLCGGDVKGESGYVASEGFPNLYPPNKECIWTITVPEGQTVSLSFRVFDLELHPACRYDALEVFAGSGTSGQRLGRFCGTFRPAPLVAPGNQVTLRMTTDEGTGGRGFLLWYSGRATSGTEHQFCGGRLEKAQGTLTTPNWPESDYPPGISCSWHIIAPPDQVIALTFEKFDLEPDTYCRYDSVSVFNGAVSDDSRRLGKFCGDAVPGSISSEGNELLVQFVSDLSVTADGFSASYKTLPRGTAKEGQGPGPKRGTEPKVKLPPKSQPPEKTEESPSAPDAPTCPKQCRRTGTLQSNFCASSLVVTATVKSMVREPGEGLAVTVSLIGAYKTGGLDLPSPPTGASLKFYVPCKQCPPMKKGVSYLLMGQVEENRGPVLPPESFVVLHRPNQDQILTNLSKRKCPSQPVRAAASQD
# Procedure details: SPR, VHH injected on immobilized PCPE-1
Note: pKd values are expressed as the negative base-10 logarithm of concentration in M.

Before answering, review these 3 worked examples.
{"Binder": "VHH-H7 (VHH, Synthetic nanobody (hsd2ab library), pET29b(+) vector, pelB signal; not shown: C-terminal 6-His tag) VHH: EVQLQASGGGFVQPGGSLRLSCAASGYYFRGEDMGWFRQAPGKEREFVSAISDDSTATIYYADSVKGRFTISRDNSKNTVYLQMNSLRAEDTATYYCAPGWYIYLDWSESGSAYWGQGTQVTVSS", "pKd": 6.82}
{"Binder": "VHH-I5 (VHH, Llama nanobody, pHEN6 vector, pelB signal, produced in E. coli periplasm; also called nanobody-I5; 15; not shown: C-terminal 6-His tag) VHH: QVQLVESGGGLVQPGGFLRLLCTASGNIFSSNTMGWYRRAPGKQREWVASISKGGSTNYADSVKDRFTISRSITKNTVYLQMVNLKPEDTAVYYCNPVPDSDNYASGQGTQVTVSS", "pKd": 8.14}
{"Binder": "VHH-I3 (VHH, Llama nanobody, pHEN6 vector, pelB signal, produced in E. coli periplasm; also called nanobody I3; 13; not shown: C-terminal 6-His tag) VHH: QVQLVESGGGLVEPGGSLRLSCAVSGSTFSMNVMGWYRQAPGKHREWVGSIGTGGGTNYPDSVKGRFTISRDNVKKTVYLQMNSLKPEDTAVYYCNKIPHNWGWGQGTQVTVSS", "pKd": 7.80}

Query: Name the recorded pKd for VHH-I7 (VHH, Llama nanobody, pHEN6 vector, pelB signal, produced in E. coli periplasm; also called nanobody I7; 17; not shown: C-terminal 6-His tag) VHH: QVQLVESGGGLVPPGGSLKLSCTASGSIFSSNVMGWYRRAPGKQREWVASISRGGGTNYPDSVKGRFTVSRDIAKNTVYLQISSLKPEDTAVYYCNPIPYSGDYVSGQGTQVTVSS .
Result: 7.89

Query: Name the recorded pKd for VHH-H4 (VHH, Synthetic nanobody (hsd2ab library), pET29b(+) vector, pelB signal; also called nanobody-H4; not shown: C-terminal 6-His tag) VHH: EVQLQASGGGFVQPGGSLRLSCAASGFTSEISNMGWFRQAPGKEREFVSAISGTHTTQTYYADSVKGRFTISRDNSKNTVYLQMNSLRAEDTATYYCAAEQDMSDLWLGSYWGQGTQVTVSS .
Result: 7.52
